Recorded values, source ChEMBL document CHEMBL2331404.

biological target: UniProtKB P43166
Sequence (P43166 whole entry): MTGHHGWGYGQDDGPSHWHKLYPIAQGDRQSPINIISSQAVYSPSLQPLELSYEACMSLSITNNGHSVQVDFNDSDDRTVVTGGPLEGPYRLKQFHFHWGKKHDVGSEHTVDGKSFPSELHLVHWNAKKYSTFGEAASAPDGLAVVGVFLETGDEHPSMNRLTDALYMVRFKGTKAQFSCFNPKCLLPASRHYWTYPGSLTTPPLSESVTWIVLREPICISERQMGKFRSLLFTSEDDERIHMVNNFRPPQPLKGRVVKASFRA
Rule for this label: fulfilled means Ki is less than 4 µM; not fulfilled means Ki is at least 4 µM.

[[record]]
compound = "COc1ccc(OC)cc1"
category = "fulfilled"

[[record]]
compound = "CCOC(=O)c1ccc(O)cc1"
category = "not fulfilled"

[[record]]
compound = "CC(C)OC(=O)/C=C/c1ccc(O)cc1 [ISOPROPYL 3-(4-HYDROXYPHENYL)ACRYLATE]"
category = "fulfilled"

[[record]]
compound = "COc1ccc(C(=O)O)cc1OC"
category = "not fulfilled"

[[record]]
compound = "O=C(O)c1cc(O)ccc1O"
category = "not fulfilled"

[[record]]
compound = "O=C(O)c1cc(O)cc(O)c1 [3,5-DIHYDROXYBENZOIC ACID]"
category = "not fulfilled"

[[record]]
compound = "COC(=O)c1ccc(O)cc1O [METHYL 2,4-DIHYDROXYBENZOATE]"
category = "fulfilled"

[[record]]
compound = "O=C(O)c1ccc(O)cc1O [2,4-DIHYDROXYBENZOIC ACID]"
category = "not fulfilled"

[[record]]
compound = "O=C(O)c1ccc(O)c(O)c1"
category = "not fulfilled"

[[record]]
compound = "COC(=O)/C=C/c1ccc(O)cc1 [METHYL P-HYDROXYCINNAMATE]"
category = "fulfilled"

